From: patent EP4692116A1

Parameter pIC50: see the listing below.
# Study system: T1, GDF15-Biotin protein (KACTUS, Cat# GDF-HM215B) (human, UniProt Q99988 197-308, limits assumed, biotin (site not stated))
# T1 construct: Bought biotinylated protein; also called human GDF15
# T1 sequence (looked up): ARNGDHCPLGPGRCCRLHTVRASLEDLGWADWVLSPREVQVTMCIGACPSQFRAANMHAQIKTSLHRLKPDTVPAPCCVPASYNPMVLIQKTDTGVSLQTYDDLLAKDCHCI
# Test protocol: blocking ELISA: GFRAL coated, 20 ng/mL GDF15-Biotin with titrated antibody, Streptavidin-HRP
pIC50 here: minus log base 10 of the concentration, concentration in moles per litre.

LN06 GDF15 heavy chain single-domain antibody (full-length, VHH joined to human IgG1 Fc) (antibody, V domains shown, expressed in CHO cells; No light chain; also called LN06 full-length) VH: QLQLVESGGGLVQPGGSLRLSCVASGFTLDDYAIGWFRQAPGKGLEGVSCISSSDESTYYADSVKGRFTISRDNAKNTAYLQMNSLKPEDTAIYYCAADTECPVQVTSMAWGQGTQVTVSS: 9.76

Hello, please tell me recorded pIC50 for this one: LN14 GDF15 heavy chain single-domain antibody (full-length, VHH joined to human IgG1 Fc) (antibody, V domains shown, expressed in CHO cells; No light chain; also called LN14 full-length) VH: QVQLVESGGGLVQPGGSLRLACAASGFTLDAYAVGWFRQAPGKNPEGVSCISSSDGSAYYADSVKGRFTISRDNAKNTVYLQMNSLKPGDTAVYYCAADLSCPVQIATFHSRGQGTQVTVSS 9.79

Give the reported pIC50 for this binder. LN05 GDF15 heavy chain single-domain antibody (full-length, VHH joined to human IgG1 Fc) (antibody, V domains shown, expressed in CHO cells, Protein A purified; No light chain; also called LN05 full-length) VH: QVQLVESGGGLVQPGGSLRLSCAASGFTLDYYAIGWFRQAPGKGREGVSCISSNDGSTYYSDSVKGRFTTSRDNAKNTVYLQMNSLKPEDTAVYYCAADLTPCPVNPSVDHYWGQGTQVTVSS 9.66

Tell me its pIC50 given LN13 GDF15 heavy chain single-domain antibody (full-length, VHH joined to human IgG1 Fc) (antibody, V domains shown, expressed in CHO cells; No light chain; also called LN13 full-length) VH: QLQLVESGGGLVQPGGSLRLSCAASGFTLDYYAIGWFRQAPGKGPEAVSCISSSDGSTYYSDSVKGRFTISRDNAKNTVYLQMNSLKPEDTAVYYCAAGEYGSDCPVQVGSWGQGTQVTVSS as the entry. 9.83

Give the value of pIC50 reported for the following: LN25 GDF15 heavy chain single-domain antibody (full-length, VHH joined to human IgG1 Fc) (antibody, V domains shown, expressed in CHO cells; No light chain; also called LN25 full-length) VH: QLQLVESGGGEVQPGGSLRLSCAASGATLDDLSIGWFRQAPGKGLEGVSCISSSDGSTYYADSVKGRFTISRDNAKNTAYLQMNSLRPEDTAVYYCAADREDCPVQPWGIVAGTSRGQGTQVTVSS 9.77
